The values you see were collected from the RNAGym collection of RNA variant scans (doi:10.7554/elife.90254).

The entries below come with measured self-cleavage values attached.
B1: LINE1-mini (parent)
chain: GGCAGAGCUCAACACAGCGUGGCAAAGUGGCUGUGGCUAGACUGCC

Variants of: B1
Assay: self-cleavage, relative activity (ratio to wild type); higher = more cleavage; in vitro, sequencing; the parent is a self-cleaving ribozyme
Write no unit; give the number alone.

GGCAGAGCUCAAGACAGCGUUGCAAAGUGGCUGUGGCUAGACUGCC [C13G G21U]	0.31

Looking up GGCAGAGCUCAACACAGCGUGGCAAAGUGGCUGUGGCCAGACUACC [U38C G44A] , I see its self-cleavage listed as 0.3

Lab note: measured self-cleavage of GGCAGAGCUCAACACAGCGUGGCAACGUGGCUGUGCCUAGACUGCC [A26C G36C] was 0.11

Looking up GGCAGAGCUCAACACAGCGUGGCAAAGUGACUGUGGCUAGACUGCC [G30A] , I found its self-cleavage recorded as 1.87

The variant listed as GGCAGAGCUCAACUCAACGUGGCAAAGUGGCUGUGGCUAGACUGCC [A14U G17A] shows self-cleavage equal to 0.13

AGUAGAGCUCAACACAGCGUGGCAAAGUGGCUGUGGCUAGACUGCC [G1A C3U] yielded self-cleavage of 0.47

variant GGCAGAGCUCAACACAGCGUGGCAACGUGGCUGUGGCUAGACCGCC [A26C U43C] , self-cleavage observed: 0.25

Measured self-cleavage, GGCAGAGCUCAACACAGCGUGGCCAAGUGGCUGUGGCUAGUCUGCC [A24C A41U] : 0.26

Sure, the documented self-cleavage for GGCAGAGCUGAACACAGCAUGGCAAAGUGGCUGUGGCUAGACUGCC [C10G G19A] is 0.1

Lookup result for GGCAGAGCACAACACAGCGUGGCAAAGUGGCUGUGGCUAGACUACC [U9A G44A] ; measured self-cleavage: 0.31

// field: self-cleavage; key: GGCAGAGCUUAACACAGCGUGGCAAAGUGGCUGUGGUUAGACUGCC [C10U C37U] ; value = 0.02

get_value(item= GGCAGAGCUCAACACAGCGUGGCAAAGUGGCUGUGGCUAUACGGCC [G40U U43G] , readout=self-cleavage) returns 0.47
